System: Mycolicibacterium smegmatis MC2 155
Experiment Notes: Inhibition of Multidrug resistance efflux pump in Mycobacterium smegmatis mc2 155 assessed as EtBr accumulation measuring relative fluorescence at half the MIC measured for 60 mins by spectrophotometry relative to control
Reported RFU values for a set of compounds
Answer with the value's number alone.

Illustrative cases are given below, each with its answer.
{"columns": ["Compound", "RFU"],
 "data": [
  ["O=C1C[C@@H](c2ccccc2)Oc2cc(O)cc(O)c21 [PINOCEMBRIN]", 11200],
  ["O[C@@H](CCc1ccccc1)C[C@H](O)/C=C/c1ccccc1", 16500],
  ["O=C(/C=C/C=C/c1ccccc1)CCc1ccccc1", 19400]
]}

Now consider the entry below.
Looking up O=C(CCc1ccccc1)C[C@@H](O)/C=C/c1ccccc1 , I found its RFU recorded as 15100

----------
Tested on: Mycolicibacterium smegmatis MC2 155
Experiment Notes: Inhibition of Multidrug resistance efflux pump in Mycobacterium smegmatis mc2 155 assessed as inhibition of EtBr efflux measuring normalized fluorescence at half the MIC measured for 60 mins by spectrophotometry relative to control
Quantity Measured: normalized EtBr fluorescence relative to control
Answer with the value's number alone.

{"columns": ["Compound String", "Value Measured"],
 "data": [
  ["O[C@@H](CCc1ccccc1)C[C@H](O)/C=C/c1ccccc1", 0.746],
  ["O=C(CCc1ccccc1)C[C@@H](O)/C=C/c1ccccc1", 0.72],
  ["O=C(/C=C/C=C/c1ccccc1)CCc1ccccc1", 0.806]
]}

Now consider the entry below.
Looking up O=C1C[C@@H](c2ccccc2)Oc2cc(O)cc(O)c21 , I found its normalized EtBr fluorescence relative to control recorded as 0.765

----------
Reported Ratio values for a set of molecules
System: Mycolicibacterium smegmatis MC2 155
Experiment Notes: Inhibition of Multidrug resistance efflux pump in Mycobacterium smegmatis mc2 155 assessed as modulation of EtBr-mediated antibacterial activity measuring ratio of EtBr MIC to EtBr and compound MIC at 64 mg/L after 72 hrs by MTT assay

Illustrative cases are given below, each with its answer.
{"columns": ["Molecule", "Ratio"],
 "data": [
  ["O=C(/C=C/C=C/c1ccccc1)CCc1ccccc1", 4],
  ["O[C@@H](CCc1ccccc1)C[C@H](O)/C=C/c1ccccc1", 8],
  ["O=C1C[C@@H](c2ccccc2)Oc2cc(O)cc(O)c21 [PINOCEMBRIN]", 4],
  ["CCCCCCCCCCCCCCCC(=O)O [PALMITIC ACID]", 1]
]}

Now consider the entry below.
Looking up CCCCCCCCCCCCCCCCCC(=O)O [STEARIC ACID] , I found its Ratio recorded as 1

----------
Reported MIC values for a set of molecules
Test system: Mycolicibacterium smegmatis
Experiment Notes: Antibacterial activity against Mycobacterium smegmatis mc2 155 after 72 hrs by MTT assay
Type: functional
Test Settings: str. MC2 155, 72 h

{"columns": ["Molecule", "MIC"],
 "data": [
  ["NNC(=O)c1ccncc1 [ISONIAZID]", "4 µg/mL"],
  ["CCCCCCCCCCCCCCCC(=O)O [PALMITIC ACID]", "128 µg/mL"],
  ["CN(C)CCCN1c2ccccc2Sc2ccc(Cl)cc21 [CHLORPROMAZINE]", "64 µg/mL"],
  ["CCCCCCCCCCCCCCCCCC(=O)O [STEARIC ACID]", "≥ 128 µg/mL"],
  ["CCCCCCCC/C=C\\CCCCCCCC(=O)O [OLEIC ACID]", "8 µg/mL"]
]}

Looking up CC/C=C\C/C=C\C/C=C\CCCCCCCC(=O)O [LINOLENIC ACID] , I found its MIC recorded as 8 µg/mL

Looking up N#CC(C#N)=NNc1cccc(Cl)c1 [CARBONYL CYANIDE M-CHLOROPHENYLHYDRAZONE] , I found its MIC recorded as 32 µg/mL

Looking up O=C(O)c1cn(C2CC2)c2cc(N3CCNCC3)c(F)cc2c1=O [CIPROFLOXACIN] , I found its MIC recorded as 0.125 µg/mL

Looking up COc1ccc(CCN(C)CCCC(C#N)(c2ccc(OC)c(OC)c2)C(C)C)cc1OC (stereo unspecified) [VERAPAMIL] , I found its MIC recorded as 512 µg/mL
